biological target: Nuclear receptor subfamily 1 group I member 2 (Rattus norvegicus) (UniProt Q9R1A7); assay: Rat pregnane X receptor (rPXR) activation by small molecules, qHTS assay (AID 1346983); details: rPXR luciferase reporter cells, One-Glo luminescence, 24 h; active compounds read high; further: on the % scale 0 is the no-effect control and ±100 the full control effect; nearly all actives have a fitted effect of over 20% in size
Sequence (Q9R1A7 whole entry, looked up): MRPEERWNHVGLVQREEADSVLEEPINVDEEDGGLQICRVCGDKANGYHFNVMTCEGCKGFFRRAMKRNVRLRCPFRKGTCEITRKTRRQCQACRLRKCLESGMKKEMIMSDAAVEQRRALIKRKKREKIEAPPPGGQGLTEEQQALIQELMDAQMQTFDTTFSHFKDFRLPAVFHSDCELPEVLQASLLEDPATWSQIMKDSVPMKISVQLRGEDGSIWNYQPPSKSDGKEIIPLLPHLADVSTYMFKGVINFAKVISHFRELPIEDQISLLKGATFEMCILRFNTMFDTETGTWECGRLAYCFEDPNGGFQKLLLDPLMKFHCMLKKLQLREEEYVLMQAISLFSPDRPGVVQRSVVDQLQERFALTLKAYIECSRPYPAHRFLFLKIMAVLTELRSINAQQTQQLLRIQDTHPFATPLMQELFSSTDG
Results filed as inconclusive are left out.
attribute-measured: max activation (%)

>>> print(df.to_string())
                                    molecule  assay_result
 0  CC(=O)[C@H]1CC[C@H]2[C@@H]3CC=C4C[C@@H](O)CC[C@]4(C)[C@H]3CC[C@]12C         -3.68
 1                 C/C=C/C(=O)N(CC)c1ccccc1C         -1.94
 2                    Cc1ccc(S(=O)(=O)O)cc1C        -0.712
 3  OC[C@@H](O)[C@@H](O[C@@H]1O[C@H](CO)[C@H](O)[C@H](O)[C@H]1O)[C@H](O)[C@@H](O)CO         -8.22
 4  CC[C@]12CCCN3CCc4c(n(c5ccccc45)[C@@](O)(C(=O)OC)C1)[C@@H]32          1.48
 5  CC(C)[N+](C)(CCOC(=O)C1c2ccccc2Oc2ccccc21)C(C)C         0.826
 6                                    IC(I)I         -1.04
 7  CCC(Cc1c(I)cc(I)c(N)c1I)C(=O)O (centres undefined)          -1.5
 8                   Cc1ccc(S(=O)(=O)NCl)cc1          4.18
 9  COc1cc([C@H]2Oc3cc([C@H]4Oc5cc(O)cc(O)c5C(=O)[C@@H]4O)ccc3O[C@@H]2CO)ccc1O         -6.88
10  CCCCCCCCCCC(CO)CCCCCCCC (centres undefined)         -1.75
11              CC(C)[C@@H]1CC[C@@H](C)CC1=O         -3.74
12          CC/C=C\C/C=C\C/C=C\CCCCCCCC(=O)O         -1.32
13                CCCCCCCC/C=C\CCCCCCCC(=O)O        -0.693

* * *

Assay: A CellTox Green Cytotoxicity Assay to monitor cytotoxicity in HepG2 cells - 24 hour (AID 1224878); further: nearly all actives have a fitted effect of over 45% in size; on Cytotoxicity: on the % scale 0 is the no-effect control and ±100 the full control effect
Conditions: CellTox Green fluorescence; series mostly up to 76.8 µM
Text: National Center for Advancing Translational Sciences [NCATS] NIH Chemical Genomics Center [NCGC] U.S. Environmental Protection Agency [EPA] National Institutes of Environmental Health Sciences [NIEHS] National Toxicology Program [NTP] Cell-based models are critical for drug discovery. […] Viable cells produce no appreciable increases in fluorescence. Therefore, the fluorescence signal produced by the binding interaction with dead cell DNA is proportional to cytotoxicity. […]
Inconclusive results are not listed. The source made the active and inactive calls. Calls come from the whole dose curve; as a rule, active = well fitted activation curve with a large enough effect in the repeat runs; inconclusive = weak or mixed curves; inactive = flat fitted curve, though single readings scatter.
Outcome codes: active, inactive

In [3]: df
Out[3]:
                                    compound  answer_label
 0  C[C@]12CC[C@@H]3c4ccc(O)cc4CC[C@H]3[C@@H]1CC[C@H]2O      inactive
 1                              CC(=O)OC(C)C      inactive
 2  CC(=O)O[C@]1(C(C)=O)CC[C@H]2[C@@H]3C=C(Cl)C4=CC(=O)CC[C@]4(C)[C@H]3CC[C@@]21C      inactive
 3              CC(C)[C@@H]1CC[C@@H](C)CC1=O      inactive
 4                          O=C1CCc2ccccc2O1      inactive
 5  C=C[C@H]1CN2CC[C@H]1C[C@@H]2[C@@H](O)c1ccnc2ccc(OC)cc12      inactive
 6                                 CN1CCOCC1      inactive
 7  CC[C@]12CCCN3CCc4c(n(c5ccccc45)[C@@](O)(C(=O)OC)C1)[C@@H]32      inactive
 8  O=C(CCCN1CCC(O)(c2ccc(Cl)cc2)CC1)c1ccc(F)cc1        active
 9  CCCCCC1C(=O)CCC1CC(=O)OC (stereo not drawn)      inactive
10                             C=CC(=O)OCCCC      inactive
11                   O=C(O)CCCCCCCCCCCC(=O)O      inactive
12             Nc1cc([N+](=O)[O-])ccc1C(=O)O      inactive

Each recorded value in this set is attributed to PubChem BioAssay (Tox21).
